Please respond with reported Mean % WT Binding for every item in the list.
# TGT: human CD33 D335A (human, UniProt P20138 18-364)
# Sequence (P20138 18-364 D335A limits assumed): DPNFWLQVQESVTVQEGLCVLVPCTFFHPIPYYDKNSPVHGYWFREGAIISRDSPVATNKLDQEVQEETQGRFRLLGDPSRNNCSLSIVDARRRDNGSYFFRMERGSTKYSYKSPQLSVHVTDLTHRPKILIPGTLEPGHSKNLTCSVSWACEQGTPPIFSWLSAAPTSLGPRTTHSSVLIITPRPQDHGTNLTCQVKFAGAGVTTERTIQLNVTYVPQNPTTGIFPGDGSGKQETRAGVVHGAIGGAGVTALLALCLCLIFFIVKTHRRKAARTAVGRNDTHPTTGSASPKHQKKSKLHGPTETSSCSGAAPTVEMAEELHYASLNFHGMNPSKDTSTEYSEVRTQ
# ASSAY PROTOCOL: flow cytometry, alanine scan

Worked cases, Mean % WT Binding given:
Refmab #1 (antibody, V domains shown, The alanine scan used IgG or Fab; also called hP67.6) VH: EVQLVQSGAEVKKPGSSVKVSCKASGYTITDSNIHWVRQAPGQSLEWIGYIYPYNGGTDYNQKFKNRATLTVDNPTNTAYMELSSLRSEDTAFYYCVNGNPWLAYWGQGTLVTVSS VL: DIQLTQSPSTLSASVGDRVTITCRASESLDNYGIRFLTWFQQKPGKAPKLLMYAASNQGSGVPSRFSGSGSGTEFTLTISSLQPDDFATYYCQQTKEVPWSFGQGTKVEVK :: 77.8 % of WT
Refmab #2 (antibody, V domains shown, The alanine scan used IgG or Fab) VH: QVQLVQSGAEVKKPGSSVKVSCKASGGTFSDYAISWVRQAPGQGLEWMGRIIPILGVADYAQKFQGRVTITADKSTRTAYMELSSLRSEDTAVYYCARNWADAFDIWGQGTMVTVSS VL: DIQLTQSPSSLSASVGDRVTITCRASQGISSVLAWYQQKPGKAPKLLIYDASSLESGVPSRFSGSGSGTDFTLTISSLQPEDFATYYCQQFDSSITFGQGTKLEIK :: 117 % of WT
Refmab #4 (antibody, V domains shown, The alanine scan used IgG or Fab) VH: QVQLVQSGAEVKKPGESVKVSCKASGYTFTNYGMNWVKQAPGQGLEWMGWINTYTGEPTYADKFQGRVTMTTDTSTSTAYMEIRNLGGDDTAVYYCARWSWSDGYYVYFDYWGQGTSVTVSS VL: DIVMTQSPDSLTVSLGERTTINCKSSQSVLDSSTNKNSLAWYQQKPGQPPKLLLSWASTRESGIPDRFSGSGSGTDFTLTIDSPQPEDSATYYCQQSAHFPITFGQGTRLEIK :: 105 % of WT

Shifting focus to the binder that follows.
Q: Sample Refmab #3 (antibody, V domains shown, The alanine scan used IgG or Fab) VH: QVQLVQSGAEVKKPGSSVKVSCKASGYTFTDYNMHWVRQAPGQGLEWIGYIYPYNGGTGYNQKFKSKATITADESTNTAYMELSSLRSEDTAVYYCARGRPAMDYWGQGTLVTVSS VL: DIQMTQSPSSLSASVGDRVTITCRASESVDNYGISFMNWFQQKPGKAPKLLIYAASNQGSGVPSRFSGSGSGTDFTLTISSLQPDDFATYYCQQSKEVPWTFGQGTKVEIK — what was its Mean % WT Binding?
A: 87.4 % of WT
